- System: Yej^+rimL^− strain
- Assay Comment: organism not typed
- Format: cell-based
- Assay Context: supernatant treated with trypsin 50 μg/mL, 37 °C, 3 h, pH 6.8; agar diffusion, 37 °C 24 h; dash = no zone
Where a SMILES comes first, the peptide text is derived from it.
Property: Diameters of the inhibition zones, Trypsin-Treated Group, Yej^+rimL^−; scope: individual compounds
Readout Type: Diameters of the inhibition zones, Trypsin-Treated Group, Yej^+rimL^− (mm)

INSERT INTO assay_data (compound, measured_result) VALUES
  ('CSCC[C@H](NC=O)C(=O)N[C@H](C(=O)N[C@H](C(=O)NCC(=O)N[C@@H](CC(N)=O)C(=O)N[C@@H](C)C(=O)N[C@@H](CC(=O)O)C(=O)NP(=O)(OCCCN)OC[C@H]1O[C@@H](n2cnc3c(N)ncnc32)[C@H](O)[C@@H]1O)[C@@H](C)O)[C@@H](C)O (some centres unmarked) [R2T] (HELM PEPTIDE1{[O=C[*:2]].M.T.T.G.N.A.[NCCCOP(=O)(NC(=O)[C@H](CC(=O)O)N[*:1])OC[C@H]1O[C@@H](n2cnc3c(N)ncnc32)[C@H](O)[C@@H]1O]}$$$$V2.0)', 17.23),
  ('CSCC[C@H](NC=O)C(=O)N[C@@H](CC(=O)O)C(=O)N[C@H](C(=O)NCC(=O)N[C@@H](CC(N)=O)C(=O)N[C@@H](C)C(=O)N[C@@H](CC(=O)O)C(=O)NP(=O)(OCCCN)OC[C@H]1O[C@@H](n2cnc3c(N)ncnc32)[C@H](O)[C@@H]1O)[C@@H](C)O (some centres unmarked) [R2D] (HELM PEPTIDE1{[O=C[*:2]].M.D.T.G.N.A.[NCCCOP(=O)(NC(=O)[C@H](CC(=O)O)N[*:1])OC[C@H]1O[C@@H](n2cnc3c(N)ncnc32)[C@H](O)[C@@H]1O]}$$$$V2.0)', 14.11);

====

Property: Diameters of the inhibition zones, Trypsin-Treated Group, Yej^+rimL^−; scope: individual molecules
- Test system: Yej^+rimL^− strain
- Assay Comment: organism not typed
- Format: cell-based
- Assay Context: supernatant treated with trypsin 50 μg/mL, 37 °C, 3 h, pH 6.8; agar diffusion, 37 °C 24 h; dash = no zone
Where a SMILES comes first, the peptide text is derived from it.
Readout Type: Diameters of the inhibition zones, Trypsin-Treated Group, Yej^+rimL^− (mm)

INSERT INTO assay_data (molecule, measured_result) VALUES
  ('CSCC[C@H](NC=O)C(=O)N[C@@H](Cc1ccc(O)cc1)C(=O)N[C@H](C(=O)NCC(=O)N[C@@H](CC(N)=O)C(=O)N[C@@H](C)C(=O)N[C@@H](CC(=O)O)C(=O)NP(=O)(OCCCN)OC[C@H]1O[C@@H](n2cnc3c(N)ncnc32)[C@H](O)[C@@H]1O)[C@@H](C)O (some centres unmarked) [R2Y] (HELM PEPTIDE1{[O=C[*:2]].M.Y.T.G.N.A.[NCCCOP(=O)(NC(=O)[C@H](CC(=O)O)N[*:1])OC[C@H]1O[C@@H](n2cnc3c(N)ncnc32)[C@H](O)[C@@H]1O]}$$$$V2.0)', 14.93),
  ('CSCC[C@H](NC=O)C(=O)N[C@@H](C)C(=O)N[C@H](C(=O)NCC(=O)N[C@@H](CC(N)=O)C(=O)N[C@@H](C)C(=O)N[C@@H](CC(=O)O)C(=O)NP(=O)(OCCCN)OC[C@H]1O[C@@H](n2cnc3c(N)ncnc32)[C@H](O)[C@@H]1O)[C@@H](C)O (some centres unmarked) [R2A] (HELM PEPTIDE1{[O=C[*:2]].M.A.T.G.N.A.[NCCCOP(=O)(NC(=O)[C@H](CC(=O)O)N[*:1])OC[C@H]1O[C@@H](n2cnc3c(N)ncnc32)[C@H](O)[C@@H]1O]}$$$$V2.0)', 19.07);
